Data provenance: patent US20220265709A1

Target: Fc-fused Cynomolgus BCMA (ACRO Biosystems, Cat. #: BCA-C5253) (cynomolgus)
Test: SPR (BIAcore T200) affinity ranking; crude sdAb captured via tag, antigen at 100 nM
Entries and their kon values follow.
Quick note: give the figure in M⁻¹ s⁻¹, leave out the unit.

anti-BCMA sdAb BCMA1 (VHH, part only, affinity tag) VHH: QVQLVESGGGSVQAGGSLRLSCKASGAIYDTNCMAWFRQTPGKEREGVATIDLGNPITYYADSVKGRFTISRDNAKNTMYLQMNSLEPEDTAMYYCAATSWWPCTTFNAGYANWGQGTQVTVSS
670000

Return the recorded kon value; entry: anti-BCMA sdAb BCMA11 (VHH, part only, affinity tag) VHH: QVQLVESGGGVVQPGGSLRLSCAASGFAFSNYAMTWGRQAPGQRLEWVSTIDSGGGSTTYSDSVKGRFTISRDNAKNTLYLQLNNLKSEDTAVYYCSENVDCNGDYCYRANYWGQGTQVTVSS
450000

Complete the entry with kon for anti-BCMA sdAb BCMA12 (VHH, part only, affinity tag) VHH: QVHLVESGGGSVQAGGSLRLSCKSSGATYSSNCMAWFRQTPGKEREGVATIDLASHGTYYADSVKGRFTISRDNAKNTMYLQMSGLRPEDTALYYCAATSWWPCTTFNGGYASWGQGTQVTVSS
940000

Name the recorded kon of the item anti-BCMA sdAb BCMA9 (VHH, part only, affinity tag) VHH: QVQLVESGGGSVQAGGSLRLSCKSSGAPYSSNCMAWFRQTPGKGREGVATIDLASHDTYYADSVKGRFTISRDNAKNTMYLQMNSLKPEDTAMYYCAATSWWPCTTFNGGYANWGQGTQVTVSS in your answer.
650000

Report measured kon; entry is anti-BCMA sdAb BCMA10 (VHH, part only, affinity tag) VHH: QVQLAESGGGLVQPGGSLRLSCAGSGFTFSSYDMNWVRQAPGKGLERVSTTFNGDDGTNYADSVLGRFTASRDKAKNTLYLQMNSLKTEDTAVYYCAAAVPGVDWYDTTRYKYWGQGTQVTVSS
790000

Check the records and state kon for anti-BCMA sdAb BCMA6 (VHH, part only, affinity tag) VHH: QMQLVESGGGSVQAGGSLRLSCTASGYTFDDSAMGWYRQAPGNECELVSSISSDGSTYYSDSVKGRFTISQDNAKNTMYLQMNSLKPEDTAVYSCAASSGEDGGSWSTPCHFFGYWGQGTQVTVSS
1.1e+06

Identify measured kon associated with anti-BCMA sdAb BCMA13 (VHH, part only, affinity tag) VHH: QVHLVESGGGSVQAGGSLRLSCKASGAIYDTNCMAWFRQTPGKEREGVATIDLGNPITYYADSVKGRFTISRDNAKNTMYLQMNSLKPEDTAMYYCAATSWWPCPANNVGYANWGQGTQVTVSS
1.4e+06

Report measured kon; entry is anti-BCMA sdAb BCMA7 (VHH, part only, affinity tag) VHH: QVHLMESGGGSVQSGGSLRLSCAASGYTYSSYCMAWFRQAPGKEREGVAAIASDGSTYYTDSVKGRFTISQDNAKNTLYLQMNSLKPEDTAMYYCGADPVGCSWPDYWGQGTQVTVSS
1.3e+06
